Reference source for all entries: ChEMBL document CHEMBL1201862

- Assay System: Nucleotide-binding oligomerization domain-containing protein 1 (Homo sapiens, UniProt Q9Y239)
- Sequence (Q9Y239 whole entry, the tested form may be a part): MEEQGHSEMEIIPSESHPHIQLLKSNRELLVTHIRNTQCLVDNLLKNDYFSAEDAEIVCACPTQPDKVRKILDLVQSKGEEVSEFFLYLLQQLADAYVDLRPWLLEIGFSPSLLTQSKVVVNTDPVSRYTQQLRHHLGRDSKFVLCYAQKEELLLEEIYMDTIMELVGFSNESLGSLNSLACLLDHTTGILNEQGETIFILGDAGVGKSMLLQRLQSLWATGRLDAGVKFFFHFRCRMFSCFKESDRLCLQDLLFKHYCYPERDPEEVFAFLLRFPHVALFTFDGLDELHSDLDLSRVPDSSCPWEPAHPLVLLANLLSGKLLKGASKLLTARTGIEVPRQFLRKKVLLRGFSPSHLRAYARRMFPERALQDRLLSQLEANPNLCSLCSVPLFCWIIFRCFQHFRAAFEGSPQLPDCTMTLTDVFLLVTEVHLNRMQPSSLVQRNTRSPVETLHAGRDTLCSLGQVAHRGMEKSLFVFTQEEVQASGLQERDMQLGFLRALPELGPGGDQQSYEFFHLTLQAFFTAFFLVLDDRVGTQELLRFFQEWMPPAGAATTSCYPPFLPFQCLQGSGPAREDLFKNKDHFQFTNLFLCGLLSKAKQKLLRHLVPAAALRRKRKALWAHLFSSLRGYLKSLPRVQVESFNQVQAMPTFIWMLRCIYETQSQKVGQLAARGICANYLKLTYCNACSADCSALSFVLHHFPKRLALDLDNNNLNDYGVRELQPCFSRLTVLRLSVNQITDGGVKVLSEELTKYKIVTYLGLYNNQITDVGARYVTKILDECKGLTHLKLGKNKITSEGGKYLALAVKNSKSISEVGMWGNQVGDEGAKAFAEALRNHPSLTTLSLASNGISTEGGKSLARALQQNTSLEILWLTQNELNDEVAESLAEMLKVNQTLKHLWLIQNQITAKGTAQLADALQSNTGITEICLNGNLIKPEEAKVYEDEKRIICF
- Measurement Description: NOD1 signaling inhibitors, SAR follow-up, revised (AID 2333)
- Type: functional
The source made the active and inactive calls.
Endpoint Label: IC50

O=C(Nc1ccc(Oc2cccnc2)nc1)c1ccc(C(F)(F)F)cc1 | 2.26 µM (active)

Inquiry: # lookup: IC50 of O=C(c1ccc(Cn2c(=S)[nH]c3ccccc3c2=O)cc1)N1CCN(c2ccccn2)CC1
Reply text: 5.3 µM (active)

Inquiry: Bench note: what IC50 did COC(=O)c1c(NC(=O)C(=O)N2CCCCC2)sc2c1CC(C)(C)OC2 show?
Reply text: > 20 µM (inactive)

Inquiry: Could you share which IC50 value was measured for CCCc1nc(SCC(=O)N2CCC(Cc3ccccc3)CC2)c2c(=O)n(C)c(=O)n(C)c2n1 ?
Reply text: 12.2 µM (active)

---

Reported AC50 values for the following compounds.
- Assay System: Cytochrome P450 2C9 (Homo sapiens)
- Sequence (P11712 whole entry): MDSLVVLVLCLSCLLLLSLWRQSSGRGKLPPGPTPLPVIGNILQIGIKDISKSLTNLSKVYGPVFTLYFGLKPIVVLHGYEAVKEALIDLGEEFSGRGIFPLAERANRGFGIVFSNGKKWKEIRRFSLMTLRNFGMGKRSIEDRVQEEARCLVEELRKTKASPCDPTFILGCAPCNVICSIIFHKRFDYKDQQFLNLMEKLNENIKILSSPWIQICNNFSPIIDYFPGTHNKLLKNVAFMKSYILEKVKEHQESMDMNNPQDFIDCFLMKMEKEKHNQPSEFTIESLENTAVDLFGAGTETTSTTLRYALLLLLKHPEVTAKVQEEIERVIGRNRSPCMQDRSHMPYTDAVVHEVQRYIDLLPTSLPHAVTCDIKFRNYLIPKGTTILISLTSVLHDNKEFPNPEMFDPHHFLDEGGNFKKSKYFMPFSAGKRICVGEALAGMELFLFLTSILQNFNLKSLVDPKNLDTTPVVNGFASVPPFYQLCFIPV

CC(=O)NC(C)C(c1cccs1)N1CCN(c2ccccc2)CC1 (stereo not given) | 11.2 µM (inconclusive)
O=c1c(-c2cccs2)nc2cnc(N3CCOCC3)nc2n1-c1ccccc1 | 10 µM (inconclusive)
Cc1cc2ccccn2c1C(=O)c1nc(N2CCOCC2)ncc1Cl | 39.8 µM (inconclusive)
CCOc1ccc(-c2nnc3n2N=C(c2ccc(OC)cc2)CS3)cc1 | 2.51 µM (inconclusive)
Cc1ccccc1NC1=NC(=S)N(c2ccccc2)C12CCOC(C)(C)C2 (stereo not given) | 11.2 µM (inconclusive)

Inquiry: Request body: readout AC50, system Cytochrome P450 2C9 (Homo sapiens), query O=C(c1ccc([N+](=O)[O-])cc1)n1nc(-c2ccccc2)nc1NCc1ccccc1 . Return the value.
Reply text: 0.631 µM (inconclusive)

Inquiry: Identify the measured AC50 of CCOC(=O)N(c1ccccc1)P1(=S)OCCO1 for Cytochrome P450 2C9 (Homo sapiens).
Reply text: 0.0355 µM (inconclusive)

---

- Measurement Description: cytotoxicity in HEK-293T cells, dose response, cytotoxicity control for TCR NF-kB inhibitor project, luminescence, T-cell screen hits (AID 489026);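 further: cells exposed to compound about 14 hours before the viability readout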
- Type: functional, cell-based
Active and inactive are the calls of the source.
Endpoint Label: IC50

CC1=CC(C)(C)N(S(=O)(=O)c2ccc(C)cc2)c2cc(C)ccc21 | > 80 µM (inactive)

Inquiry: What does the data say about its IC50? Entry: Cc1nc2ccccc2c2c1CC(C(C)(Cl)Br)O2 (stereo not given)
Reply text: > 80 µM (inactive)

Inquiry: Can you look up the measured IC50 of COc1cc(C(=O)N2CCN(c3cc(Cl)ccc3Cl)CC2)cc(OC)c1OC for me?
Reply text: > 80 µM (inactive)

Inquiry: Query: IC50; subject: O=[N+]([O-])c1ccc(O)c(/C=N/Nc2ccc(Cl)nn2)c1
Reply text: > 80 µM (inactive)

Inquiry: What does the record list as IC50 for Cc1ccc(COC(=O)c2cc([N+](=O)[O-])ccc2N2CCOCC2)cc1 ?
Reply text: > 80 µM (inactive)

---

Recorded EC50 for the following molecules
- Assay System: Oxysterols receptor LXR-beta (Homo sapiens, UniProt P55055);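 further: HEK293 cells with Gal4-LXR fusion and GAL4-driven luciferase reporter; agonist potency from rising luciferase signal of a Gal4-LXR reporter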
- Sequence (P55055 whole entry): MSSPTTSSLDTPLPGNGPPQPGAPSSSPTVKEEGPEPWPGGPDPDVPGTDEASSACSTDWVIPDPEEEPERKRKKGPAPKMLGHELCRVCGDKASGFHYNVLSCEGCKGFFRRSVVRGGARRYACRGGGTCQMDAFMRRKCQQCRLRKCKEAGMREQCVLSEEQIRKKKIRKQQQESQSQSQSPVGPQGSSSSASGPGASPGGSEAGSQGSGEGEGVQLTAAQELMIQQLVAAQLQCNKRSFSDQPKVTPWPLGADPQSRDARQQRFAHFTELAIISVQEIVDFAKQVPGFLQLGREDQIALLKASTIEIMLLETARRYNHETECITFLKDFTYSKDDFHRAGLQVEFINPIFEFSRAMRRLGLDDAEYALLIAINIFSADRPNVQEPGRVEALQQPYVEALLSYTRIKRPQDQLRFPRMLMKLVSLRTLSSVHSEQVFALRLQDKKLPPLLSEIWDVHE
- Type: functional, cell-based
Calls of active or inactive are those of the source.

Some molecules with known EC50 results, for comparison:
CC(C)c1ccc(-n2nc3ccc(N)cc3n2)cc1 | > 67.6 µM (inactive)
O=c1[nH]c(=O)n([C@H]2C[C@H](O)[C@@H](CO)O2)cc1Br | > 67.5 µM (inactive)
Cc1ccc2c(c1)Cc1nc3ccccc3nc1-2 | > 67.6 µM (inactive)
COc1cccc(NC(=O)n2ncc3c(C)cccc32)c1 | > 67.5 µM (inactive)

Next item in the queue.
Inquiry: Please provide the recorded EC50 for Cc1ccc(-c2nc(N/N=C/c3ccncc3)c3ccccc3n2)cc1 , tested on Oxysterols receptor LXR-beta (Homo sapiens, UniProt P55055).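 Further: Cell-based luminescence dose-response assay of agonist activity at LXR, run as a confirmatory counterscreen to a daf-12 agonist screen.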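 Further: HEK293 cells with Gal4-LXR fusion and GAL4-driven luciferase reporter; agonist potency from rising luciferase signal of a Gal4-LXR reporter.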
Reply text: > 67.5 µM (inactive)

---

- Test system: SN12K1
- Measurement Description: cells
- Assay type: functional
- Experimental Conditions: Homo sapiens
The source made the active and inactive calls.
Lab note: assign the record to one of y for active, n for inactive

Worked examples follow.
C/C([O-])=C(/c1nc(-c2ccc([N+](=O)[O-])o2)no1)[n+]1cc(C)ccc1C | n
Cc1c(N=NN(C)C)cc[n+]([O-])c1C | n
CCOC(=O)c1ccc(N[C@@H]2c3cc4c(cc3C(c3cc(OC)c(O)c(OC)c3)[C@H]3C(=O)OCC32)OCO4)cc1 (stereo not given in full) | y

Inquiry: Please indicate how the test categorized C=C/C(C)=C/[C@H](C)C(=O)C[C@H](O)CC1CC(=O)NC(=O)C1 .
Reply text: n

Inquiry: Answer briefly: the call reported for CNC(=O)OCc1nc(SSC(C)(C)C)n(C)c1COC(=O)NC in this assay.
Reply text: n

---

Reported values of IC50 for individual entries
- Assay System: Caspase-3 (Homo sapiens);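 further: Dose-response selectivity test against caspase-3 for candidate inhibitors of sentrin-specific proteases (SENPs)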
- Format: functional
Activity calls are given as the source filed them.

Inquiry: Which IC50 reading was recorded for the compound COC(=O)c1sccc1NC(=O)Cc1ccc(Br)cc1 ?
Reply text: 17.9 µM (active)

Inquiry: Bench note: what IC50 did COc1ccc(C(=O)O/N=C(\N)c2ccc(OC)c(OC)c2)cc1 show?
Reply text: 13.3 µM (active)

Inquiry: Could you share which IC50 value was measured for COCCn1c(C)cc(C(=O)CSc2nc3ccccc3s2)c1C ?
Reply text: 26.4 µM (active)

Inquiry: Which IC50 value is on record for Cn1c(-c2ccccc2)cc2onc(-c3ccccc3)c2c1=O ?
Reply text: 2.4 µM (active)

Inquiry: Name the reported IC50 value associated with the compound O=C(Nc1cccs1)Nc1ccc(Br)cc1F
Reply text: 45.8 µM (active)

---

- Assay System: Coagulation factor XII (Homo sapiens);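 further: activated factor XIIa alpha cleaving a fluorogenic AMC peptide substrate; inhibitor potency from loss of enzyme activity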
- Format: functional
Activity calls are given as the source filed them.
In this exercise, the only acceptable responses are 1 (active), 0 (inactive)

Cc1noc(C)c1CSc1nc2ccccc2c(=O)n1-c1ccc(F)cc1F | 0
O=C(Oc1ccc2c(=O)c(Cl)coc2c1)c1ccncc1 | 1
O=C(O)CCN1C(=O)C2C3c4ccccc4C(c4ccccc43)[C@@H]2C1=O (some centres not stated) | 0
O=C(NCc1ccc2c3c(cccc13)C(=O)N2)c1cccs1 | 0
COc1ccc(N2CCCn3c2nc2c3c(=O)n(Cc3ccc(C)cc3)c(=O)n2C)c(OC)c1 | 0

Inquiry: Can you look up the reported call for CCn1cc(C(=O)NCc2cccnc2)c(=O)c2cc(F)c(N3CCN(C(=O)c4ccco4)CC3)cc21 for me?
Reply text: 0

Inquiry: Per the records of this test, what outcome belongs to CO/N=C/c1ccc(Sc2ccccc2N)c([N+](=O)[O-])c1 ?
Reply text: 0

---

- Assay System: Orexin receptor type 2 (Homo sapiens, UniProt O43614)
- Sequence (O43614 whole entry): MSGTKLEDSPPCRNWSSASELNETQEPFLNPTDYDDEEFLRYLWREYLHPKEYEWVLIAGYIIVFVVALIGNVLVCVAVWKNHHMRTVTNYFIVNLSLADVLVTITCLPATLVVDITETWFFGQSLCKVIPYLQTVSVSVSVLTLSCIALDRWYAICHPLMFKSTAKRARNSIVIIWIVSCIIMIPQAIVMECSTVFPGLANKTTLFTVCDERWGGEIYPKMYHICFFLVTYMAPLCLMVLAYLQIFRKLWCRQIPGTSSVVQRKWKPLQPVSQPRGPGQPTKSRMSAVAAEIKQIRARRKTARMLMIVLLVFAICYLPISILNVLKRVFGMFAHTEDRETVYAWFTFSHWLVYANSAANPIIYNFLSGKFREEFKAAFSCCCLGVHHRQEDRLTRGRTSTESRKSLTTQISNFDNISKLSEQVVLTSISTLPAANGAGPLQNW
- Measurement Description: Counterscreen assay for antagonists of the orexin 1 receptor (OX1R; HCRTR1): Fluorescence-based cell-based dose response assay for antagonists of the orexin 2 receptor (OX2R; HCRTR2), run by assay provider.
- Format: functional
Calls of active or inactive are those of the source.
# IC50 values compiled below

c1ccc(CN2CCN(C3CCCSc4ccccc43)CC2)cc1 (centres undefined) | > 88.8 µM (inactive)
COc1ccc(OC)c(S(=O)(=O)NCC(c2ccco2)N2CCc3ccccc32)c1 (centres undefined) | 10.5 µM (inactive)
C=CCn1c(SCc2ccc(C(=O)Nc3nccs3)cc2)nnc1-c1ccc(C)c(Cl)c1 | 18 µM (inactive)

Okay, next one:
Inquiry: Provide value of IC50 for this record tested with Orexin receptor type 2 (Homo sapiens, UniProt O43614): CCOc1ccccc1C(=O)NCCNC(=O)c1ccccc1OCC
Reply text: > 88.8 µM (inactive)

---

- Measurement Description: control 3'UTR Renilla luciferase suppression, dose response, counter-screen for Shn3 inhibitor project, cell-based, Clone20-Shn3RL, cherry-picked (AID 624133)
- Type: functional
Calls of active or inactive are those of the source.
Collected AC50 values appear next to each entry.

CCOC(=O)C1CCCN(C(=O)Cn2sc3nc(C)cc(C)c3c2=O)C1 (stereo unspecified) | 7.5 µM (active)

In the following, a different molecule is considered.
Inquiry: Reported AC50 for COc1cc(OC)c(OC)cc1/C=C1\CC(C)C/C(=C\c2cc(OC)c(OC)cc2OC)C1=O (stereo unspecified) : what is it?
Reply text: 5.08 µM (active)
